Test system: Akt phosphorylation induced by IGF-1R in HT-29 cells
assayInfo: Western blot analysis of Akt phosphorylation induced by IGF-1R
Assay type: cell-based, Human
studyConditions: 0.1 nM compound 2 h, then IGF-1 10 ng/mL 10 min; HT-29
attributeMeasured: phosphorylated AKT levels normalized to actin levels (pAKT/actin)
Respond numerically, and do not add a unit to the figure.

>>> reportedresult("O=C(Nc1ccc(F)nc1)C1CCCCN1c1nc2c(c(Nc3cc(C4CCCC4)[nH]n3)n1)CCC2 (single isomer, unassigned) [Compound 17a]")
0.89
>>> reportedresult("O=C(Nc1ccc(F)nc1)C1CCCN1c1nc2c(c(Nc3cc(C4CC4)[nH]n3)n1)CCC2 (single isomer, unassigned)")
1.70

Please report the recorded phosphorylated AKT levels normalized to actin levels (pAKT/actin) for O=C(Nc1cnccn1)C1CCCN1c1nc2c(c(Nc3cc(C4CC4)[nH]n3)n1)CCC2 (single isomer, unassigned) . 0.87

Consider next the compound O=C(Nc1ccc(F)nc1)C1CCCN1c1nc2c(c(Nc3cc(C4CCCC4)[nH]n3)n1)CCCC2 (single isomer, unassigned) [Compound 15b] in the same way. 0.52

What do you have for CC(C)c1cc(Nc2nc(N3CCCCC3C(=O)Nc3ccc(F)nc3)nc3c2CCC3)n[nH]1 (single isomer, unassigned) [Compound 16a] ? 0.82

Each recorded value in this set is attributed to patent US9422267B2.
